The measurements presented in this section are drawn from patent US10988478B1.

ASSAYED_TARGET: human IRAK4 (Homo sapiens (Human), UniProt Q9NWZ3)
Sequence (Q9NWZ3 whole entry): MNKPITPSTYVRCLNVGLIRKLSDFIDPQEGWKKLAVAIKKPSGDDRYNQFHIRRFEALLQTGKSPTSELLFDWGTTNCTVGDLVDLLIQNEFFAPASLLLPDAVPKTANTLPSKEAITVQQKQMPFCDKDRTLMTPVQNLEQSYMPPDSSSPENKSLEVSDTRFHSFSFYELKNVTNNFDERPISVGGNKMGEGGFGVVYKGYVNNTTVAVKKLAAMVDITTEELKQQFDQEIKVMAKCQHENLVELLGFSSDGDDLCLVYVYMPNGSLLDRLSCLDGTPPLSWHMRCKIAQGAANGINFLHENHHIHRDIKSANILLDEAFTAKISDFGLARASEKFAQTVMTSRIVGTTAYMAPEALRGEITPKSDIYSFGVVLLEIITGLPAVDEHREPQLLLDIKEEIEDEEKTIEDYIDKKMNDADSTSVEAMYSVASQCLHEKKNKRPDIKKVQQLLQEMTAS
EXPERIMENTAL_DETAILS: IRAK4 kinase inhibition, Transcreener fluorescence polarization ADP assay
EXPERIMENTAL_CONTEXT: recombinant full-length His6-IRAK4; 125 uM ATP; 90 min; Ki computed using ATP Km 642 uM
Description: Compounds were assayed for inhibition of human IRAK4 and IRAK1 catalytic activity using recombinant enzyme produced from insect cells. Full-length IRAK4 protein, carrying an N-terminal His6-Tag, was obtained from Life Technologies (Carlsbad, Calif., USA). The IRAK1 construct was produced internally and was comprised of IRAK1 residues Arg194 to Ser712, preceded by an NH2-terminal His6 tag and the coding sequence for glutathione-S-transferase.
pKi: −log10 of the molar value.
MEASURED_QUANTITY: pKi

[A] CC1(C)Cc2cc(NC(=O)c3cnn4cccnc34)c(N3CCN(CC(F)F)CC3)cc2O1 [Example 8]
[B] C[C@@]1(COC(F)F)Cc2cc(NC(=O)c3cnn4cccnc34)c(N3CCOCC3)cc2O1 [Example 156]
[C] O=C(Nc1cc2c(cc1N1CCOCC1)C(=O)N(CC1CCCCO1)C2)c1cnn2cccnc12 (single isomer, unassigned) [Example 277]
[D] CC(C)(O)C1CCN(c2cc3c(cc2NC(=O)c2cnn4cccnc24)C[C@](C)(CO)O3)CC1 [Example 324]
Asked: Put the items in order so that reported pKi rises from first to last. Response format: the labels, sorted as the prompt asks.
Given back: B, C, D, A
